Let's look at some molecules and their measured t1/2.
assay: Metabolic stability in human liver microsomes; conditions: human liver microsomes, 3 μM;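 note: microsomal protein 0.5 mg/mL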
// return numeric value only (unit: min, not printed)

Solved entries (count: 3):
COCCOCCOCCOCCOCCNc1ccc(S(=O)(=O)N(CC(C)C)CC(O)[C@H](Cc2ccccc2)NC(=O)O[C@H]2CO[C@H]3OCC[C@H]32)cc1 (some centres unmarked) [mPEG5-N-Darunavir]
3.15
COCCOCCOCCOCCOCCOc1ccc(C[C@H](NC(=O)O[C@H]2CO[C@H]3OCC[C@H]32)C(O)CN(CC(C)C)S(=O)(=O)c2ccc(N)cc2)cc1 (some centres unmarked) [mPEG5-O-Darunavir]
7.00
COCCOCCOCCOCCOCCOCCOC(=O)NC(C(=O)NC(Cc1ccccc1)C(O)CN(Cc1ccc(-c2ccccn2)cc1)NC(=O)C(NC(=O)OC)C(C)(C)C)C(C)(C)C (centres unmarked) [mono-mPEG6-Atazanavir]
12.3

*Q* Specify reported t1/2 for the molecule shown: COCCOCCOCCOCCOCCOCCOCCNc1ccc(S(=O)(=O)N(CC(C)C)CC(O)[C@H](Cc2ccccc2)NC(=O)O[C@H]2CO[C@H]3OCC[C@H]32)cc1 (some centres unmarked) [mPEG7-N-Darunavir]
*A* 3.89

*Q* Return reported t1/2. Input molecule: COCCOCCOCCOc1ccc(C[C@H](NC(=O)O[C@H]2CO[C@H]3OCC[C@H]32)C(O)CN(CC(C)C)S(=O)(=O)c2ccc(N)cc2)cc1 (some centres unmarked) [mPEG3-O-Darunavir]
*A* 17.9

*Q* Tell us which t1/2 value is on record for COCCOCCOCCNc1ccc(S(=O)(=O)N(CC(C)C)CC(O)[C@H](Cc2ccccc2)NC(=O)O[C@H]2CO[C@H]3OCC[C@H]32)cc1 (some centres unmarked) [mPEG3-N-Darunavir]
*A* 3.60

*Q* Please supply the value of reported t1/2 for the item COCCOCCOCCOC(=O)NC(C(=O)NC(Cc1ccccc1)C(O)CN(Cc1ccc(-c2ccccn2)cc1)NC(=O)C(NC(=O)OC)C(C)(C)C)C(C)(C)C (centres unmarked) [mono-mPEG3-Atazanavir]
*A* 8.04

*Q* Could you please provide reported t1/2 for COCCOCCOCCOCCOCCOCCOCCOc1ccc(C[C@H](NC(=O)O[C@H]2CO[C@H]3OCC[C@H]32)C(O)CN(CC(C)C)S(=O)(=O)c2ccc(N)cc2)cc1 (some centres unmarked) [mPEG7-O-Darunavir] ? Thanks!
*A* 12.2

---

Uridine incorporation (CEM-SS) TC50 by entry:
Test system: CEM-SS cells
Assay: CEM-SS macromolecule synthesis (tritiated precursor incorporation)
Assay type: cell-based
Details: RNA synthesis
Procedure: Cellular macromolecule synthesis was evaluated using tritiated precursor incorporation assays. CEM-SS cells (2.5×10^3 cells/well) were cultured in the presence or absence of test compound for 7 days at 37 C, 5% CO2 in a 96-well microtiter plate. […] Incorporated radioactivity was measured using a Wallac scintillation counter.

*Q* Look up and report measured Uridine incorporation (CEM-SS) TC50 for this entry: CC(C)CN(C[C@@H](O)[C@H](Cc1ccccc1)NC(=O)O[C@H]1CO[C@H]2OCC[C@H]21)S(=O)(=O)c1ccc(N)cc1 [Darunavir, reference compound]
*A* >400 µM

*Q* Identify Uridine incorporation (CEM-SS) TC50 associated with the molecule COCCOCCOCCOCCOCCOc1ccc(C[C@H](NC(=O)O[C@H]2CO[C@H]3OCC[C@H]32)C(O)CN(CC(C)C)S(=O)(=O)c2ccc(N)cc2)cc1 (stereo partly drawn)
*A* >400 µM

*Q* Please give the documented Uridine incorporation (CEM-SS) TC50 of COCCOCCOCCOc1ccc(C[C@H](NC(=O)O[C@H]2CO[C@H]3OCC[C@H]32)C(O)CN(CC(C)C)S(=O)(=O)c2ccc(N)cc2)cc1 (stereo partly drawn)
*A* >400 µM

---

Parameter: IC50. Scope: all listed entries.
biological target: CYP3A4 (Homo sapiens (Human), UniProt P08684); test: CYP450 inhibition in human liver microsomes: CYP3A4; settings: read-out: CYP3A4 IC50 Testosterone; probe substrate testosterone;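 note: incubation at 37 °C started by adding 1 mM NADPH, with formation of the probe metabolite measured via LC-MS/MS or fluorescent detection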
Sequence (P08684 whole entry): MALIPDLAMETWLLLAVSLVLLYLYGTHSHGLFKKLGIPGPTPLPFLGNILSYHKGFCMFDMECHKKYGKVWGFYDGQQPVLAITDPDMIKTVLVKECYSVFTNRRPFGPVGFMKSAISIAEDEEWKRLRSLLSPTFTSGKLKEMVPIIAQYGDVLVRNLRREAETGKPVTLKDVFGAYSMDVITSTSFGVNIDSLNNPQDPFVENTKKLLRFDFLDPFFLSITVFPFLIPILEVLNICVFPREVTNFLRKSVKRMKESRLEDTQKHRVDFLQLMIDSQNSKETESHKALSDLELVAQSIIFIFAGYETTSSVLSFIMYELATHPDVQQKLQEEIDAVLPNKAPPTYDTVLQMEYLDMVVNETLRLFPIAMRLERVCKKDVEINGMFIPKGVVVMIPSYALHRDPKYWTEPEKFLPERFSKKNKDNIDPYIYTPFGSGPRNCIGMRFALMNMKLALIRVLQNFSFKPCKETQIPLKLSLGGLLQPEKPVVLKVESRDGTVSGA

Past entries and their recorded results:
CCC[C@@]1(CCc2ccccc2)CC(O)=C([C@H](CC)c2cccc(N(CCOCCOCCOCCOCCOCCOCCOC)S(=O)(=O)c3ccc(C(F)(F)F)cn3)c2)C(=O)O1 [mPEG7-amide-Tipranavir]
~4 µM
COCCOCCOCCOCCOCCOCCOC(=O)NC(C(=O)NC(Cc1ccccc1)C(O)CN(Cc1ccc(-c2ccccn2)cc1)NC(=O)C(NC(=O)OC)C(C)(C)C)C(C)(C)C (stereo not drawn)
> 25 µM

Pending compound:
*Q* Tell me IC50 reported for COCCOCCOCCOCCOCCOc1ccc(C[C@H](NC(=O)O[C@H]2CO[C@H]3OCC[C@H]32)C(O)CN(CC(C)C)S(=O)(=O)c2ccc(N)cc2)cc1 (stereo partly drawn)
*A* > 25 µM
